- Tested on: HAP1 MTAP-deleted cell line
- assay_text: SDMA in-cell western assay, HAP1 MTAP-deleted
- Format: cell-based
- test_settings: Homo sapiens, HAP1, SDMA in-cell western, HAP1 MTAP-deleted; read-out: HAP1 MTAP deleted IC50
# key: entry, value: IC50

Use these answered entries as a reference point.
Request: What does the data say about its IC50? Entry: CCc1cc(NC(=O)C(=O)N2C[C@H](C)CC[C@H]2c2ccc3sc(CCN(C)C)nc3c2)cnc1N (single isomer, unassigned)
Response: > 1000 nM

Request: What measured IC50 goes with [H][C@@]1([C@]2([H])C[C@@]3(C[C@H](O)C3)C2)CC[C@@H](C)CN1C(=O)C(=O)Nc1cnc(N)c(C)c1 (mixture of isomers) ?
Response: > 1000 nM

Request: Fill in: IC50 of C[C@@H]1CC[C@@H](c2cncc(F)c2)N(C(=O)C(=O)Nc2cncc(C(N)=O)c2)C1 (racemic) is ___
Response: > 1000 nM

Others:
Request: # get_value(readout='IC50', item= C[C@@H]1CC[C@@](C)(c2ccccc2)N(C(=O)C(=O)Nc2cncc(C(N)=O)c2)C1 (racemic) )
Response: > 1000 nM

Request: Would you kindly share the measured IC50 for Cc1cc(NC(=O)C(=O)N2C[C@@H](C)CC[C@@H]2c2ccc(F)c(F)c2)cnc1N (single isomer, unassigned) ?
Response: > 1000 nM

Request: Consider the compound shown here: Cc1cc(NC(=O)C(=O)N2C[C@H](C)CC[C@H]2c2ccccc2)cnc1C (single isomer, unassigned) What is its recorded IC50?
Response: 100 to 1000 nM
